tested on: hKv1.5 (Homo sapiens, UniProt P22460)
Sequence (P22460 whole entry): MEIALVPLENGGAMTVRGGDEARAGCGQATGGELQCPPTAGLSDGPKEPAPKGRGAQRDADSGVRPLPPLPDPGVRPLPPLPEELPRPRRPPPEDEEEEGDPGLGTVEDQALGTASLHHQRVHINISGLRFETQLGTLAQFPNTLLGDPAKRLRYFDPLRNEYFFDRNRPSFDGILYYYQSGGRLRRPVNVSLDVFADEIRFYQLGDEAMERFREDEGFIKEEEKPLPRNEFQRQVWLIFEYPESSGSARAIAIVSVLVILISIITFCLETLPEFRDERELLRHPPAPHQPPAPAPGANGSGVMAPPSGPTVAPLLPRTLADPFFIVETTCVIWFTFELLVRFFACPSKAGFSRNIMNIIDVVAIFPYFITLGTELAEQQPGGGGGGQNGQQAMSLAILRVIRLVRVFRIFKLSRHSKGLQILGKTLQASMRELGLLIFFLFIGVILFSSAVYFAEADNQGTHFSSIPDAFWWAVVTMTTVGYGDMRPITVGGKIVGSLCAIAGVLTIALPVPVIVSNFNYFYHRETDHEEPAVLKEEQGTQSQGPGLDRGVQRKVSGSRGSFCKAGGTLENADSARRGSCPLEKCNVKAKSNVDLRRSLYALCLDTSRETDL
method notes: Kv1.5 Autopatch electrophysiology (whole cell)
Type: cell-based
condition set: hKv1.5 current, test concentration not given, read-out: hKv1.5 % Inh.
Experimental: Kv1.5 Autopatch Electraphysiogogy Method The external bathing solution contained (in mM): 150 NaCl, 10 KCl, […], 3 MgCl2, 1 CaCl2, 10 HEPES, pH 7.4. […] Electrophysiology voltage-step protocols and analysis of data was performed as follows. […] Currents were analysed using Pulsefit software (v8.54, HEKA, Germany), with the total charge measured during the whole of the voltage step. […]
parameter measured: inhibition at 1 µM
Provide the measurement as a number trailed by its unit.

Give hKv1.5 (Homo sapiens, UniProt P22460) inhibition at 1 µM for the following molecule: Cn1ccc(S(=O)(=O)N(Cc2ccc(Cl)cc2)c2cccc(C(=O)NCCO)c2)n1 [Example 1]
48%

Give hKv1.5 (Homo sapiens, UniProt P22460) inhibition at 1 µM for the following molecule: CC(C)NC(=O)c1cccc(N(Cc2ccc(Cl)cc2)S(=O)(=O)c2ccnn2C)c1 [Example 7]
54%

Give hKv1.5 (Homo sapiens, UniProt P22460) inhibition at 1 µM for the following molecule: CC(C)NC(=O)c1cccc(N(Cc2ccccc2)S(=O)(=O)c2cccnc2)c1 [Example 3]
52%

Give hKv1.5 (Homo sapiens, UniProt P22460) inhibition at 1 µM for the following molecule: O=C(Nc1ccc2cn[nH]c2c1)c1cccc(N(Cc2ccccc2)S(=O)(=O)c2ccccc2)c1 [Example 4]
99%

Give hKv1.5 (Homo sapiens, UniProt P22460) inhibition at 1 µM for the following molecule: CC(=O)Nc1ccc(S(=O)(=O)N(Cc2ccccc2)c2cccc(C(=O)NC(C)C)c2)cc1 [Example 5]
18%

src = patent US9447033B2
